Quick list: inhibition per entry.
Molecular target: AP-2 complex subunit beta (Homo sapiens)
Assay: inhibitors of arrestin peptide binding to AP2, pilot screen, biochemical, validation set, GST-AP2 beads, flow cytometry (AID 504541);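 further: AP2 carries R879A mutation and is captured from E. coli lysate; bead-bound FITC arrestin peptide fluorescence measuring arrestin peptide binding to AP2; 0% = DMSO wells and 100% = excess unlabeled arrestin peptide control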
Conditions: FITC arrestin peptide, at 10 µM, stronger effect = higher value, AP2 beta2 appendage fragment, R879A mutant
Hi! Could you send only the number? It should be in %, unit omitted.

// known answers, use as guide
- compound: "C[C@@H]1C[C@H]2[C@@H]3C[C@H](F)C4=CC(=O)C=C[C@]4(C)[C@@]3(F)[C@@H](O)C[C@]2(C)[C@@]1(O)C(=O)CO"
  units-label: "%"
  inhibition: -9.58
- compound: "C[C@H](NC(=O)NCCc1ccccc1)C(=O)O"
  units-label: "%"
  inhibition: -3.97
- compound: "CCCC1O[C@@H]2C[C@H]3[C@@H]4CCC5=CC(=O)C=C[C@]5(C)[C@H]4[C@@H](O)C[C@]3(C)[C@]2(C(=O)CO)O1 (stereo not given in full)"
  units-label: "%"
  inhibition: 42.5

-- ask Notebook: pull reported inhibition for AP-2 complex subunit beta (Homo sapiens), entry `CC(C)NC(=O)c1ccc(C(C)C)cc1`
-- reply -5.8
